- Tested on: Fibrinogen (Alexa647-labelled)
- PROTOCOL_NOTES: fibrinogen binders on compound microarrays, profiling panel, artefact control for SMM control-protein annotation, biochemical, small-molecule microarray, 635/667 nm fluorescence (AID 1131);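 note: z-score merges 667 nm fluorescence with per-spot signal-to-noise over triplicate slides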
- EXPERIMENTAL_CONDITIONS: fibrinogen-A647 binding fluorescence, higher = more signal
Please mark 1 if the recorded composite z-score is equal to or greater than 0.4, and 0 if it falls below.

# example entries with known answers
[
  {
    "COMPOUND": "O=C1N(Cc2ccccc2)c2ccccc2[C@@H]2OC(c3ccc(OCCCO)cc3)=N[C@]12Cc1ccccc1",
    "MEASUREMENT_TARGET": "Fibrinogen (Alexa647-labelled)",
    "CLASSIFICATION": 1
  },
  {
    "COMPOUND": "C=C(/C(=C/C[C@H](OC(C)=O)c1ccccc1OCCO)c1cc(C(=O)OC)ccc1OC)C(C)C",
    "MEASUREMENT_TARGET": "Fibrinogen (Alexa647-labelled)",
    "CLASSIFICATION": 0
  },
  {
    "COMPOUND": "C=CCOC(=O)[C@H]1[C@@H]2C(=O)O[C@@H](c3ccccc3)[C@@H](c3ccccc3)N2[C@@H](c2ccc(OCCOC(=O)[C@@H]3C[C@@H]4C(=O)N[C@@H](CCCCNC(C)=O)C(=O)N4[C@@H]3c3ccc(O)cc3)cc2)[C@]12C(=O)Nc1ccc(I)cc12",
    "MEASUREMENT_TARGET": "Fibrinogen (Alexa647-labelled)",
    "CLASSIFICATION": 1
  },
  {
    "COMPOUND": "COCCOC(=O)N1C(=O)[C@@]2(c3cc(C#CCCO)ccc31)[C@H](C(=O)Nc1nc3ccccc3s1)[C@H]1C(=O)O[C@H](c3ccccc3)[C@H](c3ccccc3)N1[C@@H]2c1ccccc1OCCO",
    "MEASUREMENT_TARGET": "Fibrinogen (Alexa647-labelled)",
    "CLASSIFICATION": 1
  },
  {
    "COMPOUND": "CC1=C([C@H](O)CCc2ccccc2)[C@H](CO)[C@@H]2C(=O)N(C)C(=O)[C@@H]2C1",
    "MEASUREMENT_TARGET": "Fibrinogen (Alexa647-labelled)",
    "CLASSIFICATION": 1
  }
]

Item O=C1C2C=CC(C(O)c3ccc(F)cc3)N(n3cnnc3)C2C(=O)N1Cc1ccccc1 (configuration not stated) with composite z-score of 0.4 or above?
0

Similarly, COC(=O)[C@@]1(Cc2ccccc2)[C@H]2c3cc(C(=O)N(C)C)n(Cc4c(CO)[nH]cc(C)c4=O)c3C[C@H]2CN1C(=O)c1ccccc1 ?
1

Repeat with C=CCNC(=O)[C@H]1[C@@H]2C(=O)O[C@@H](c3ccccc3)[C@@H](c3ccccc3)N2[C@@H](c2ccc(O)cc2)[C@]12C(=O)N(C(=O)OCCOC)c1ccccc12
1

###

- PROTOCOL_NOTES: PSAC antagonists in infected red cells, primary screen, cell-based, P. falciparum Indochina, OD700, 2 h (AID 1155);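 note: lysis reports solute entry through the parasite surface anion channel PSAC; channel blockers reduce lysis of infected cells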
- EXPERIMENTAL_CONDITIONS: P. falciparum Indochina infected erythrocytes, osmotic lysis OD700; higher = more signal, called active from +8 up or from −8 down
Rule: met for z-score not less than 7, not met for anything less.

[
  {
    "MOLECULE": "COc1ccc([Si](C)(C)[C@H]2[C@H](CC(=O)N(CCO)Cc3ccccc3)O[C@@]3(C(=O)N(Cc4cccc(N5CCOC5=O)c4)c4ccccc43)[C@@H]2C)cc1",
    "CLASSIFICATION": "not met"
  },
  {
    "MOLECULE": "COc1ccc([Si](C)(C)[C@@H]2[C@@H](CCO)O[C@]3(C(=O)N(Cc4ccc(N5CCCCC5=O)cc4)c4ccccc43)[C@H]2C)cc1",
    "CLASSIFICATION": "met"
  },
  {
    "MOLECULE": "CC1CC/C=C\\[C@H]2OC34C=CCN(C(C)C)C(=O)[C@H]3N(CCCCCCO)C(=O)[C@@H]4C2C(=O)O1 (stereo partly specified)",
    "CLASSIFICATION": "not met"
  },
  {
    "MOLECULE": "C[C@H]1NC(=O)[C@@]23C(=O)N[C@@H](Cc4ccccc4)C2[C@H](C)[C@@]2(C)O[C@H]2C3/C=C/C/C=C\\CNC(=O)[C@H](Cc2ccccc2)NC1=O (stereo partly specified)",
    "CLASSIFICATION": "not met"
  }
]

Now let's try a different one.
Does z-score meet or surpass 7 for COc1ccc(CCNC(=O)[C@@H]2c3ccccc3C(=O)N(Cc3cc(C(F)(F)F)cc(C(F)(F)F)c3)[C@H]2c2ccc(CO)cc2)cc1 ?
not met

###

- MEASUREMENT_TARGET: Focal adhesion kinase 1 (Homo sapiens)
- PROTOCOL_NOTES: small-molecule microarray binders of FAK, primary screen, biochemical, 635/667 nm fluorescence, BSA, DTT (AID 1130);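 note: composite of spot emission at 667 nm and signal to noise over triplicate slides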
- EXPERIMENTAL_CONDITIONS: PTK2 binding, 635 nm fluorescence, higher = more signal
MEASURED_PARAMETER: composite z-score
Keep the answer to the number alone.

For orientation, consider the following solved cases.
[
  {
    "COMPOUND": "C=CC[C@]1(C(=O)O)COC(c2ccc(OCCCO)cc2)=N1",
    "MEASURED_PARAMETER": "composite z-score",
    "VALUE": -0.0931
  },
  {
    "COMPOUND": "CC(CO)N1C(=O)[C@@H]2[C@H]3C(=O)OCC=C[C@H]3OC23C=CCN(C(C)(C)C)C(=O)[C@@H]13 (stereo partly drawn)",
    "MEASURED_PARAMETER": "composite z-score",
    "VALUE": -0.367
  }
]

Need composite z-score of CO[C@]12C=C(Br)[C@@H](C[C@@H]1c1cccc(C)c1)[C@@]1(CO1)C2=O , thanks.
-0.129

Please do the same for NC(=O)N1C(=O)C2C(C1=O)C1C=C(CCCO)C2C(c2cccs2)N1Cc1cccc(OC(F)(F)F)c1 (stereo not drawn) as well.
0.192

Another compound to look at: O=C1OCC=C[C@H]2OC34C=CCN(c5ccc(Cl)cc5)C(=O)[C@H]3N(CCO)C(=O)[C@@H]4[C@@H]12 (stereo partly drawn)
-0.588

Here is the next compound: CCOC(=O)C[C@H]1[C@H](OC(=O)Cc2ccc3c(c2)OCO3)[C@@H](NC(=O)CC(C)C)c2cc(OCCCO)ccc2N1C(=O)Cc1ccc(OC)cc1
-0.224

Moving on to the next compound: O=C1C[C@@](C(=O)NCCN2CCOCC2)(c2ccc([N+](=O)[O-])cc2)[C@@H](c2ccc(CO)cc2I)N1C1CCCCC1
0.211

Next up: COc1ccc(NC(=O)O[C@H]2[C@H](OC(=O)Nc3ccccc3)[C@@H](OC(=O)Nc3ccccc3)[C@@H](OC)O[C@@H]2CO)cc1
0.634

###

- PROTOCOL_NOTES: binders of probe aFSTL3 on microarray, primary screen, stem cell growth factor project, biochemical, small-molecule microarray, fluorescence 635/667 (AID 1064);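 note: measures binding of the biotinylated anti-FSTL3 antibody to printed compounds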
- EXPERIMENTAL_CONDITIONS: higher = more signal
// values below are reported composite z-score

Answered examples (3):
[
  {
    "COMPOUND": "COCCOC(=O)N1C(=O)[C@@]2(c3cc(C#CC4=CCCCC4)ccc31)[C@H](c1ccccc1OCCO)N1[C@H](c3ccccc3)[C@H](c3ccccc3)OC(=O)[C@H]1[C@@H]2C(=O)Nc1nc2ccccc2s1",
    "VALUE": -0.19
  },
  {
    "COMPOUND": "N#Cc1ccc(C(O)C2C=CC3C(=O)N(c4ccccc4)C(=O)C3N2Nc2ccccc2)cc1 (centres undefined)",
    "VALUE": 0.396
  },
  {
    "COMPOUND": "Cc1cc(C)cc(N2C(=O)CSC2c2cccc([N+](=O)[O-])c2)c1 (centres undefined)",
    "VALUE": -0.0703
  }
]

Okay, next one:
# get_value(readout='composite z-score', item= C=C(/C(=C/C[C@@H](OC(C)=O)c1cccc(OCCO)c1)c1cc(C(=O)OC)ccc1OC)C(C)C )
-0.367

###

- MEASUREMENT_TARGET: NADPH oxidase 2 (Homo sapiens) (UniProt P04839)
- Sequence (P04839 whole entry, looked up): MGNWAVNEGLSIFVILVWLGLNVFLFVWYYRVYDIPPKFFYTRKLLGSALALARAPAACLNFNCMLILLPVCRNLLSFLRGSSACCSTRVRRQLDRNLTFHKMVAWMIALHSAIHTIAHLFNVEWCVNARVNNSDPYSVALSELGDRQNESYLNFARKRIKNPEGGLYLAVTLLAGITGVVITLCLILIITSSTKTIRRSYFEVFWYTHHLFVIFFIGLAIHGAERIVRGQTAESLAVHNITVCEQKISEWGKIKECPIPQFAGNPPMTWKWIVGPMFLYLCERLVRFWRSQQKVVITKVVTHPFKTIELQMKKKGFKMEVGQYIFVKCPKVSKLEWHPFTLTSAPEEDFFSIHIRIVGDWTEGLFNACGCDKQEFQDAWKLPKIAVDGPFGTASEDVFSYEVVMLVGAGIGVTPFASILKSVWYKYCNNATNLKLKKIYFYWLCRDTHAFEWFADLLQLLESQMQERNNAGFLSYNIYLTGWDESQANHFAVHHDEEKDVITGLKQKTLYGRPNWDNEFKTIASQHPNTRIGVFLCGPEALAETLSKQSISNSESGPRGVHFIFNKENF
- PROTOCOL_NOTES: NOX2-dependent H2O2 signal modulators, primary screen, NOX inhibitor project, cell-based, HEK293-NOX2, PMA-stimulated, Amplex Red fluorescence (AID 1159); note: test concentration not given here
- EXPERIMENTAL_CONDITIONS: 45 min, higher = more signal, called active from +8 up or from −8 down
Here the recorded z-score is given for each entry.
Number only, no unit.

Example entries begin here.
[
  {
    "SMILES_CODE": "O=C1C[C@@](C(=O)NCCN2CCOCC2)(c2ccc([N+](=O)[O-])cc2)[C@@H](c2ccc(CO)cc2I)N1C1CCCCC1",
    "z-score": 2.1
  },
  {
    "SMILES_CODE": "CCOC(=O)C[C@H]1[C@H](OC(=O)c2cc3ccccc3oc2=O)[C@@H](NC(=O)c2ccc(-c3ccccc3)cc2)c2cc(OCCCO)ccc2N1C(=O)c1ccc2ccccc2n1",
    "z-score": 0.858
  },
  {
    "SMILES_CODE": "CCC[C@@H]1C[C@@]1(CCC)[C@@H](NC(=O)OCc1ccccc1)c1ccc(-c2ccccc2)cc1",
    "z-score": -0.648
  }
]

Read the next record carefully.
What does the record list as z-score for CCCNC(=O)[C@@H]1c2ccccc2C(=O)N(C(C)C)[C@H]1c1ccc(CO)cc1 ?
0.162
